The measured values listed here are drawn from ChEMBL document CHEMBL4339208.

System: Pseudomonas aeruginosa
Test: Potentiation of doxycycline-induced antibacterial activity against Pseudomonas aeruginosa ATCC 27853 assessed as concentration required to restore 2 ug/ml doxycycline activity measured after 18 hrs
Assay type: functional
READOUT_TYPE: Activity (µM)

1) O=C(NCCCNCCCCCCCCCCNCCCNC(=O)C(=O)c1c[nH]c2cc(Br)ccc12)C(=O)c1c[nH]c2cc(Br)ccc12.O=C(O)C(F)(F)F.O=C(O)C(F)(F)F = 6.16
2) C[C@H]1c2cccc(O)c2C(=O)C2=C(O)[C@]3(O)C(=O)C(C(N)=O)=C(O)[C@@H](N(C)C)[C@@H]3[C@@H](O)[C@@H]21.O [DOXYCYCLINE] = 12.5

----------
System: L6
Experiment: Cytotoxicity against rat L6 cells measured after 72 hrs by alamar blue assay
Type: cell-based
Conditions: L6, 72 h
pIC50: −log10 of the molar value.
READOUT_TYPE: pIC50

1. O=C(NCCCCNCCCNC(=O)C(=O)c1c[nH]c2cc(Br)ccc12)C(=O)c1c[nH]c2cc(Br)ccc12 = 5.06
2. O=C(NCCCNCCNC(=O)C(=O)c1c[nH]c2cc(Br)ccc12)C(=O)c1c[nH]c2cc(Br)ccc12 = 4.05
3. CN(C)CCNC(=O)C(=O)c1c[nH]c2cc(Br)ccc12 = 4.00
4. O=C(NCCCNCCCCCCNCCCNC(=O)C(=O)c1c[nH]c2cc(Br)ccc12)C(=O)c1c[nH]c2cc(Br)ccc12.O=C(O)C(F)(F)F.O=C(O)C(F)(F)F = 5.24
5. O=C(NCCCCCCCCCCCCNC(=O)C(=O)c1c[nH]c2cc(Br)ccc12)C(=O)c1c[nH]c2cc(Br)ccc12 = 4.05
6. O=C(NCCCOCCOCCOCCCNC(=O)C(=O)c1c[nH]c2cc(Br)ccc12)C(=O)c1c[nH]c2cc(Br)ccc12 = 4.12
7. O=C(NCCCNCCCCCCCNCCCNC(=O)C(=O)c1c[nH]c2cc(Br)ccc12)C(=O)c1c[nH]c2cc(Br)ccc12.O=C(O)C(F)(F)F.O=C(O)C(F)(F)F = 5.36

----------
Test system: Erythrocyte
Assay: Hemolytic activity against human RBC incubated for 10 mins under shaking condition measured after 1 hr
Format: ADME, cell-based
READOUT_TYPE: HC10

1) O=C(NCCCNCCCCNCCCNC(=O)C(=O)c1c[nH]c2cc(Br)ccc12)C(=O)c1c[nH]c2cc(Br)ccc12 = > 34 µM
2) O=C(NCCCNCCCCCCCCNCCCNC(=O)C(=O)c1c[nH]c2cc(Br)ccc12)C(=O)c1c[nH]c2cc(Br)ccc12.O=C(O)C(F)(F)F.O=C(O)C(F)(F)F = > 32 µM
3) O=C(NCCCNCCCCCCCNCCCNC(=O)C(=O)c1c[nH]c2cc(Br)ccc12)C(=O)c1c[nH]c2cc(Br)ccc12.O=C(O)C(F)(F)F.O=C(O)C(F)(F)F = > 33 µM
4) O=C(NCCCCNCCCNC(=O)C(=O)c1c[nH]c2cc(Br)ccc12)C(=O)c1c[nH]c2cc(Br)ccc12 = > 50 µM
